Cited source for all entries: paper PMC5540273

%Inh for assorted compounds
system: PIK3CG; conditions: concentration: 1 μM,replicates: in singlicate; n = 1;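 also: KINOMEscan kinase panel screen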
Number only, in %; omit the unit.

Use the examples below as a reference point.
Request: Given the compound `NC(=O)Nc1sc(-c2ccc(F)cc2)cc1C(N)=O` , what is its reported %Inh?
Response: 1

Request: Given the compound `Cl.c1ccc(Oc2ccc(Nc3ccnc4cc(-c5ccc(CN6CCNCC6)o5)ccc34)cc2)nc1` , what is its reported %Inh?
Response: 10

***
Request: Given the compound `O=C(Nc1ccccc1)c1cccc(Oc2ccc3nccn3n2)c1` , what is its reported %Inh?
Response: 0

Request: Given the compound `COc1cc2nccc(Nc3ccc(Oc4ccccc4)cc3)c2cc1OC.Cl` , what is its reported %Inh?
Response: 0

Request: Given the compound `CN(c1ccccc1CNc1nc(Nc2ccc3c(c2)CC(=O)N3)ncc1C(F)(F)F)S(C)(=O)=O` , what is its reported %Inh?
Response: 0

###

tested on: MAPKAPK2; conditions: concentration: 1 μM,replicates: in singlicate; n = 1
measurement_name: %Inh

Use the examples below as a reference point.
Request: Given the compound `Cn1ccc2ncnc(Oc3ccc(NC(=O)Nc4cnn(C(C)(C)C)c4)c(Cl)c3)c21` , what is its reported %Inh?
Response: 7%

Request: Given the compound `Cc1ccn2nc(-c3ccc(F)cc3)c(-c3ccncc3)c2c1.Cl` , what is its reported %Inh?
Response: 15%

***
Request: Given the compound `Cc1n[nH]c2cc(Nc3ccnc(Nc4cccc(CN5CCOCC5)c4)n3)ccc12` , what is its reported %Inh?
Response: 0%

Request: Given the compound CCNCC(Cc1ccccc1)NC(=O)c1cc(Br)c(-c2ccnc3[nH]ccc23)s1.Cl.Cl (centres unmarked) , what is its reported %Inh?
Response: 0%

Request: Given the compound `Cn1ccc2ncnc(Oc3ccc(NC(=O)Nc4ccnc(C(F)(F)F)c4)c(Cl)c3)c21` , what is its reported %Inh?
Response: 1%

###

tested on: GRK2; construct: gene ADRBK1; details: concentration: 1 μM,replicates: in singlicate; n = 1
%Inh for assorted compounds
Number only, in %; omit the unit.

Use the examples below as a reference point.
Request: Given the compound `O=C(Nc1n[nH]c2cc(-c3ccco3)ccc12)C1CC1` , what is its reported %Inh?
Response: 0

Request: Given the compound `Cn1ccc2ncnc(Oc3ccc(NC(=O)Nc4cc(C(C)(C)C)on4)c(Cl)c3)c21` , what is its reported %Inh?
Response: 62

Request: Given the compound `OCCn1cc(-c2cnc3nnn(Cc4ccc5ncccc5c4)c3n2)cn1` , what is its reported %Inh?
Response: 0

Request: Given the compound `CN(c1ccccc1CNc1nc(Nc2ccc3c(c2)CC(=O)N3)ncc1C(F)(F)F)S(C)(=O)=O` , what is its reported %Inh?
Response: 0

***
Request: Given the compound `Nc1nccc(-c2ccc3c(N)n[nH]c3c2)n1` , what is its reported %Inh?
Response: 0

Request: Given the compound `Cc1cccc(-c2nc(Nc3ccncc3)c3sccc3n2)n1` , what is its reported %Inh?
Response: 17

Request: Given the compound `CC(C)S(=O)(=O)N1CCN(Cc2ccc3c(c2)nc(NC(=O)c2ccsc2)n3C[C@H](O)c2ccccc2)CC1` , what is its reported %Inh?
Response: 0

Request: Given the compound `C[C@@H](Oc1cc(-n2cnc3cc(-c4cnn(C)c4)ccc32)sc1C(N)=O)c1ccccc1Cl` , what is its reported %Inh?
Response: 38

Request: Given the compound `Cn1ccc2ncnc(Oc3ccc(NC(=O)Nc4cccc(C(F)(F)F)c4)c(Cl)c3)c21` , what is its reported %Inh?
Response: 0

###

system: VPS34; construct: gene PIK3C3; settings: concentration: 1 μM,replicates: in singlicate; n = 1
%Inh for assorted compounds

Use the examples below as a reference point.
Request: Given the compound `Cl.Cl.NC[C@H](CC1CCCCC1)NC(=O)c1ccc(-c2ccnc3[nH]ccc23)s1` , what is its reported %Inh?
Response: 9%

Request: Given the compound `Cc1ccc2c(-c3ccnc(Nc4ccc(C(F)(F)F)cc4)n3)cnn2n1` , what is its reported %Inh?
Response: 48%

Request: Given the compound `COc1cc2ncn(-c3cc(OCC4CCCCC4)c(C(N)=O)s3)c2cc1OC` , what is its reported %Inh?
Response: 20%

Request: Given the compound `Cn1ccc2ncnc(Oc3ccc(NC(=O)Nc4cccc(C(F)(F)F)c4)c(F)c3)c21` , what is its reported %Inh?
Response: 0%

Here is another compound to look at.
Request: Given the compound N#Cc1cccc(C(=O)NC2CCN(c3ccnc(Nc4ccc(F)cc4)n3)C2)c1 (centres unmarked) , what is its reported %Inh?
Response: 0%

###

system: CDK2; settings: concentration: 1 μM,replicates: in singlicate; n = 1
Binarize %Inh at 3%; below is condition met, at or above is condition not met.

The examples below pair each entry with its known result.
Request: In the record for `O=c1[nH]cc(-c2ccc(O)cc2)c2sc(-c3ccncc3)cc12` , is %Inh less than 3%?
Response: condition met

Request: In the record for `O=C(Nc1cccc(C(F)(F)F)c1)c1cccc(Oc2ccc3nccn3n2)c1` , is %Inh less than 3%?
Response: condition not met

Request: In the record for `CC(=O)Nc1ccc(-c2cc3ncnc(SCC(=O)O)c3s2)cc1` , is %Inh less than 3%?
Response: condition not met

Request: In the record for `Cc1ccc(Nc2ccnc(Nc3ccc4c(c3)CS(=O)(=O)C4)n2)cc1O.Cl` , is %Inh less than 3%?
Response: condition not met

Request: In the record for `COc1cccc(OC)c1C(=O)Nc1cccc(-c2nn3ccccc3c2-c2ccnc(Nc3cccc(F)c3)n2)c1` , is %Inh less than 3%?
Response: condition met

Request: In the record for `COc1cccc(C2=C(Nc3cccc(Cl)c3)C(=O)NC2=O)c1` , is %Inh less than 3%?
Response: condition not met

***
Request: In the record for `Cc1ccc2c(-c3ccnc(Nc4ccc(C(F)(F)F)cc4)n3)cnn2n1` , is %Inh less than 3%?
Response: condition not met

Request: In the record for `CC(C)S(=O)(=O)N1CCN(Cc2ccc3c(c2)nc(NC(=O)c2ccsc2)n3C[C@H](O)c2ccccc2)CC1` , is %Inh less than 3%?
Response: condition met

Request: In the record for `C[C@@H](Oc1cc(-n2cnc3ccc(-c4ccncc4)cc32)sc1C(N)=O)c1ccccc1Cl` , is %Inh less than 3%?
Response: condition not met

Request: In the record for `CCCC(=O)Nc1n[nH]c2ncccc12` , is %Inh less than 3%?
Response: condition met

Request: In the record for `Cl.c1ccc(Oc2ccc(Nc3ccnc4cc(-c5ccc(CN6CCNCC6)o5)ccc34)cc2)nc1` , is %Inh less than 3%?
Response: condition met

Request: In the record for COc1ccc(Nc2nccc(N3CCC(NC(=O)c4cccc(C#N)c4)C3)n2)cc1 (stereo not drawn) , is %Inh less than 3%?
Response: condition met

Request: In the record for `C[C@@H]1CCN(C(=O)N2CCCC2)C[C@@H]1N(C)c1ncnc2[nH]ccc12` , is %Inh less than 3%?
Response: condition met

Request: In the record for `c1ccc(Oc2ccc(Nc3ccnc4ccc(-c5ccccn5)cc34)cc2)cc1` , is %Inh less than 3%?
Response: condition met

Request: In the record for `C[C@@H]1CNc2c(sc3ccc4nc(-c5ccc(O)cc5)ccc4c23)C(=O)N1` , is %Inh less than 3%?
Response: condition met

Request: In the record for CS(=O)c1ccc(-c2coc3ccc(-c4n[nH]c(=O)o4)cc23)cc1 (stereo not drawn) , is %Inh less than 3%?
Response: condition met

Request: In the record for `Cn1ccc2ncnc(Oc3ccc(NC(=O)Nc4cccc(C(F)(F)F)c4)c(Cl)c3)c21` , is %Inh less than 3%?
Response: condition met

###

%Inh for assorted molecules
test system: SRPK1; conditions: concentration: 1 μM,replicates: in singlicate; n = 1
Number only, in %; omit the unit.

Request: Given the molecule CCCC(=O)Nc1n[nH]c2ncccc12 [SB-601436] , what is its reported %Inh?
Response: 16

Request: Given the molecule COc1cc2nccc(Nc3ccc(Oc4ccccc4)cc3)c2cc1OC.Cl [GI261656] , what is its reported %Inh?
Response: 31

Request: Given the molecule `CC(=O)Nc1ccc(-c2cc3ncnc(SCC(=O)O)c3s2)cc1` , what is its reported %Inh?
Response: 0

Request: Given the molecule `O=C(Nc1ccccc1)c1cccc(Oc2ccc3nccn3n2)c1` , what is its reported %Inh?
Response: 2

Here is another molecule to look at.
Request: Given the molecule Cc1n[nH]c2cc(Nc3ccnc(Nc4cccc(CN5CCOCC5)c4)n3)ccc12 [GW682569] , what is its reported %Inh?
Response: 92.2

###

test system: EPHB3; conditions: concentration: 1 μM,replicates: in singlicate; n = 1
measurement_name: %Inh (%)
Number only, in %; omit the unit.

Use the examples below as a reference point.
Request: Given the compound Cl.c1ccc(Oc2ccc(Nc3ccnc4cc(-c5ccc(CN6CCNCC6)o5)ccc34)cc2)nc1 [GW567142] , what is its reported %Inh?
Response: 0

Request: Given the compound CN(c1ccc2c(c1)nc(NCc1ccc(F)cc1)n2C)c1ccnc(Nc2ccc(CS(C)(=O)=O)cc2)n1.Cl [GW813244] , what is its reported %Inh?
Response: 5

Request: Given the compound `O=C1NCCc2[nH]c(-c3ccncc3)cc21` , what is its reported %Inh?
Response: 44

Request: Given the compound COC(=O)c1cccc(NC(=O)NC2CCN(c3ccnc(Nc4cc(OC)c(OC)c(OC)c4)n3)C2)c1 (centres unmarked) [GSK1379767] , what is its reported %Inh?
Response: 8

Here is another compound to look at.
Request: Given the compound `C[C@@H]1CCN(C(=O)N2CCCC2)C[C@@H]1N(C)c1ncnc2[nH]ccc12` , what is its reported %Inh?
Response: 26
